Tested on: Factor XI protein
Test: Cynomolgus monkeys: plasma Factor XI protein ELISA (Example 30)
Assay type: in vivo
Conditions: 25 mg/kg s.c.; plasma ELISA; Day 10
Procedure: Groups, each consisting of two male and two female monkeys, were injected subcutaneously with 25 mg/kg of ISIS 416850, ISIS 449709, ISIS 445522, ISIS 449710, ISIS 449707, ISIS 449711, ISIS 449708, 416858 and ISIS 445531. […] Body weights were taken 14 days and 7 days before the start of treatment and were then measured weekly throughout the treatment period. […] The results are presented in Table 148, expressed as percentage reduction relative to that of the PBS control.
In the oligonucleotide strings, read from the 5' end, every base follows the letter of its sugar. An asterisk marks phosphorothioate; unmarked linkages are phosphodiester. Other units and linkages are bracketed, terminal groups are in braces. A string of capitals states the bases alone. e = 2'-O-(2-methoxyethyl) (MOE); [5mC] = 5-methylcytosine; d = 2'-deoxy (DNA)
Answer each item with its documented Inhibition of Factor XI protein relative to the PBS control.
Numbers only, in %.

Known Inhibition of Factor XI protein relative to the PBS control results, listed for orientation:
>  <SUBSTANCE>
445531 (antisense eG*eG*e[5mC]*eA*eT*dT*dG*dG*dT*dG*d[5mC]*dA*d[5mC]*eA*eG*eT*eT*eT) [compound 445531]

>  <UNIT_OF_MEASURE>
%

>  <TEST_RESULT>
9

$$$$
>  <SUBSTANCE>
449711 (antisense eA*e[5mC]*dA*dG*dT*dT*dT*d[5mC]*dT*dG*dG*d[5mC]*eA*eG) [compound 449711]

>  <UNIT_OF_MEASURE>
%

>  <TEST_RESULT>
5

$$$$
>  <SUBSTANCE>
449710 (antisense e[5mC]*eA*e[5mC]*dA*dG*dT*dT*dT*d[5mC]*dT*dG*dG*d[5mC]*eA*eG*eG) [compound 449710]

>  <UNIT_OF_MEASURE>
%

>  <TEST_RESULT>
10

$$$$
>  <SUBSTANCE>
416858 (antisense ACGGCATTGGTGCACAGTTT; 5-10-5 gapmer, wing sugar chemistry not given here, further chemistry not given here) [compound 416858]

>  <UNIT_OF_MEASURE>
%

>  <TEST_RESULT>
36

$$$$
>  <SUBSTANCE>
449708 (antisense eA*e[5mC]*eA*dG*dT*dT*dT*d[5mC]*dT*dG*dG*e[5mC]*eA*eG) [compound 449708]

>  <UNIT_OF_MEASURE>
%

>  <TEST_RESULT>
7

$$$$

Now turn to the next substance.
-- ask Field request: Inhibition of Factor XI protein relative to the PBS control | item: 449709 (antisense eG*e[5mC]*eA*e[5mC]*dA*dG*dT*dT*dT*d[5mC]*dT*dG*dG*d[5mC]*eA*eG*eG*e[5mC]) [compound 449709]
-- reply 27
